# tested.on: UniProtKB Q96DB2
# Sequence (Q96DB2 whole entry): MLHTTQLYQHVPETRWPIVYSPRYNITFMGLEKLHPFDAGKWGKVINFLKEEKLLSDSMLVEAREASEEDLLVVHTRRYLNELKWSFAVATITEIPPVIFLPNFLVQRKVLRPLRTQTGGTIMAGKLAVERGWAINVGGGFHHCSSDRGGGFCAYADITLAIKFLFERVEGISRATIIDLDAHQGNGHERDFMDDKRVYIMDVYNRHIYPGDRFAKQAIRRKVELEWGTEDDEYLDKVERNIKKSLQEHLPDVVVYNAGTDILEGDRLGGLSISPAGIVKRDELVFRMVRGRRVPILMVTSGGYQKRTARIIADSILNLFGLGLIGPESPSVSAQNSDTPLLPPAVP
# assay.details: Inhibition of HDAC11 (unknown origin)
observable: pIC50
Scale: pIC50 equals -log10([C]), with [C] in mol/L.

# lookup: pIC50 of "Nc1cc(F)ccc1NC(=O)c1ccc(CNC(=O)/C=C/c2cccnc2)cc1"
6.40

Data provenance is ChEMBL document CHEMBL4765362.
